The reported numbers originate from ChEMBL document CHEMBL1122074.

# method notes: Molar potency (1/IC50) in the guinea pig ileum divided by its potency in the mouse vas deferens.
# Format: functional
quantity measured: Molar potency

Completed entries (count: 3):
molecule	quantity measured	result
CCC(=O)C(c1ccccc1)(c1ccccc1)[C@@H](C)[C@@H](C)N(C)C (single isomer, unassigned)	Molar potency	6.9
CCC(=O)C(c1ccccc1)(c1ccccc1)[C@H](C)[C@H](C)N(C)C (single isomer, unassigned)	Molar potency	1.7
CN1CC[C@]23c4c5ccc(O)c4O[C@H]2[C@@H](O)C=C[C@H]3[C@H]1C5 [MORPHINE]	Molar potency	6.5

From here, focus on the item given below.
Supply reported Molar potency belonging to this molecule: CCC(=O)C(c1ccccc1)(c1ccccc1)C(C)CN(C)C (single isomer, unassigned)
2.3
